The values you see were collected from ChEMBL document CHEMBL1201862.

GI50 values for the compounds below.
Test system: RXF 393
PROTOCOL TEXT: NCI tumour cell line growth inhibition, 48 h
Activity calls are given as the source filed them. Cut-off read from the data, not from the text of the source: active = GI50 up to about 1.1 µM and inactive = higher.

>>> observed_measurement("COC(=O)C(CCCN1C(=O)c2ccccc2C1=O)C(=O)OC")
"> 100 µM (inactive)"

response.value for c1ccc(C2(c3ccccc3)S/C(=C3/SC(c4ccccc4)(c4ccccc4)c4ccccc43)c3ccccc32)cc1 (field: GI50) = > 100 µM (inactive)

Consider C=C(CC(=O)Nc1ccc(C(=O)OC)o1)C(=O)OC . Its measured GI50 is 18.5 µM (inactive)

====

Tested on: A498
PROTOCOL TEXT: NCI tumour cell line growth inhibition, 48 h
Calls of active or inactive are those of the source. Cut-off read from the data, not from the text of the source: active = GI50 up to about 1.1 µM and inactive = higher.
ENDPOINT NAME: GI50

Recorded results for 5 compounds are shown here.
>>> observed_measurement("CCCCCCCCCCCCCC(=O)OC(/C=C/C(C)C)C(O)C(O)C(OC)C(=O)NC1CCCCNC1=O (configuration not stated)")
"5.21 µM (inactive)"
>>> observed_measurement("CN1CN(c2ccccc2)C2(CCNCC2)C1=O")
"> 100 µM (inactive)"
>>> observed_measurement("O=C(N/N=C\\c1ccc(Cl)cc1)Nc1cccc2ccccc12")
"2.67 µM (inactive)"
>>> observed_measurement("CCOC(=O)C(=Cc1cccnc1C)C(=O)OCC")
"10.9 µM (inactive)"
>>> observed_measurement("Cc1ccc(NC(=O)CC2C(=O)Nc3ccccc3[S+]2[O-])c(C)c1 (configuration not stated)")
"18.9 µM (inactive)"

Kindly note: A498, COc1ccc(/C=C/C(=O)NCC(NC(=O)/C=C/c2ccc(OC)c(OC)c2)C(=O)O)cc1OC (configuration not stated) , GI50 value reported: > 100 µM (inactive)

Summary: Cc1[nH]n(-c2nc(O)c(-c3ccccc3)c(=O)[nH]2)c(=O)c1CCO , A498, GI50 = > 100 µM (inactive)

Per the reported A498 data, CCCCN(CCCC)CC(=O)c1ccc2cc(Cl)c3ccccc3c2c1 has GI50 of 20.7 µM (inactive)

Bench note, A498: entry O=C1C(Cl)C2(CC(/C=C/c3ccccc3)=NN2c2cccc(S(=O)(=O)O)c2)N1c1nc2ccccc2s1 (configuration not stated) , its GI50 = 19.3 µM (inactive)

Measured GI50 for this entry O=C(O)C1CCN(Cc2oc(CO)cc(=O)c2O)C1 (configuration not stated) on A498: > 100 µM (inactive)

# GI50 measured on A498 for item CCOC(=O)N1C=NC23C(c4ccccc4)C(c4ccccc4)C12C(=O)N(C)C(=O)N3C (configuration not stated) = > 100 µM (inactive)

Measured on A498, COc1ccc(CCN2COc3ccc4ccc(=O)oc4c3C2)cc1OC has a documented GI50 of > 100 µM (inactive)
